test: HepG2 cell viability effects, profiling panel, calcein-AM fluorescence, 48 h, basal (AID 1164); conditions: higher = more signal; also: test concentration not given here
z-score overview

compound | z-score
O=C1O[C@H](c2ccccc2)[C@H](c2ccccc2)N2[C@H]1[C@@H](C(=O)O)[C@]1(C(=O)Nc3ccccc31)[C@H]2c1ccc(OCCO)cc1 | -0.119
CO[C@H]1O[C@H](CO)[C@@H](OC(=O)Nc2cccc(F)c2)[C@H](OC(=O)c2cc3ccccc3[nH]2)[C@H]1OC(=O)c1cc2ccccc2[nH]1 | 0.387
Cc1ccc(S[C@]2(C(=O)NC(C)C)CC(=O)N(Cc3ccccc3)[C@@H]2c2ccc(CO)cc2I)cc1 | 1
CC(C)N1CC=CC23O[C@@H]4/C=C\CCCOC(=O)C4[C@H]2C(=O)N(C(C)CO)[C@@H]3C1=O (stereo not given in full) | -0.145
C=C(C(=O)CC[C@@H](OC(=O)c1ccccc1-c1ccccc1C(=O)O)c1ccc(OCCO)cc1)C(C)C | 0.654
CCOC(=O)C[C@H]1[C@H](OC(=O)c2ccccc2-c2ccccc2)[C@@H](NC(=O)CC(C)C)c2cc(OCCCO)ccc2N1C(=O)c1ccccc1 | -0.177
COC(=O)[C@]1(Cc2ccccc2CN=[N+]=[N-])N=C(c2ccc(OCCCO)cc2)O[C@@H]1c1ccccc1N=[N+]=[N-] | -5.51
COc1cccc(C)c1NC(=O)O[C@H]1[C@H](OC(=O)Nc2ccccc2-c2ccccc2)[C@@H](OC(=O)Nc2ccccc2-c2ccccc2)[C@@H](OC)O[C@@H]1CO | -3.51
C=CCNC(=O)[C@H]1[C@@H]2C(=O)O[C@@H](c3ccccc3)[C@@H](c3ccccc3)N2[C@@H](c2ccc(O)cc2)[C@]12C(=O)Nc1ccccc12 | 1.51
C=CC[C@]1(C(=O)NCC(O)CO)N=C(c2ccc(OCCCO)cc2)O[C@H]1c1ccccc1CN=[N+]=[N-] (stereo not given in full) | 1.31
C[C@@]1([C@@H](NS(=O)(=O)c2cccc3cccnc23)c2ccc(-c3ccccc3)cc2)C[C@H]1C1CCCCC1 | -1.04
Cc1ccc(S[C@]2(C(=O)NC3CC3)CC(=O)N(C3Cc4ccccc4C3)[C@@H]2c2ccc(CO)cc2I)cc1 | 0.193
CC(=O)NCCCC[C@@H]1NC(=O)[C@H]2C[C@@H](C(=O)O)[C@@H](c3cccc(OCCO)c3)N2C1=O | 0.276
COC(=O)c1c2oc(c1C(=O)OC)C(=O)N[C@H](Cc1ccccc1)Cn1cc(nn1)C1(CCCCC1)NC(=O)N[C@H](CO)CC2 | 0.286
CN(C)CCCCNC(=O)[C@H]1C[C@H]2C(=O)N[C@@H](CCCCN(C)C)C(=O)N2[C@H]1c1ccc(O)cc1 | 0.218

---

assay: P. aeruginosa biofilm formation inhibitors, primary screen, strain PAO1, LB-PBS medium, absorbance 600 nm (AID 1176); also: test concentration not given here; settings: P. aeruginosa PAO1 growth/biofilm, A600, 12 h; higher = more signal

structure_smiles | z-score
CN(C)CCCC[C@@H]1NC(=O)[C@H]2C[C@@H](C(=O)NCCCCCCNC(=O)CS)[C@@H](c3cccc(OCCO)c3)N2C1=O | 0.463
COc1ccc([Si](C)(C)[C@H]2[C@H](CCO)O[C@@]3(C(=O)N(Cc4ccccc4)c4ccc(NC(=O)[C@H](C)O)cc43)[C@@H]2C)cc1 | 1.7
COC(=O)[C@@]1(Cc2ccc(F)cc2)[C@H]2c3cc(C(=O)N(C)C)n(Cc4ccc(C(F)(F)F)nc4)c3C[C@H]2CN1C(=O)c1ccccc1 | -0.359
CC(C)C[C@@H]1NC(=O)[C@@H]2C[C@H](C(=O)NCCCCCCNC(=O)CS)[C@H](c3ccc(O)cc3)N2C1=O | 1.97
CCOC(=O)C[C@H]1[C@H](OC(=O)c2ccccc2-c2ccccc2)[C@@H](NC(=O)CC(C)C)c2cc(OCCCO)ccc2N1C(=O)c1ccccc1 | 0.13
COC(=O)C(CC#Cc1ccc2c(c1)[C@]1(C(=O)N2)[C@H](c2ccccc2OCCO)N2[C@H](c3ccccc3)[C@H](c3ccccc3)OC(=O)[C@H]2[C@@H]1C(=O)N1CCN(c2ncccn2)CC1)C(=O)OC | 2.29
